These data points were gathered from ChEMBL document CHEMBL5291721.

Target: 5-hydroxytryptamine receptor 3A (Homo sapiens); further: assay procedure not described here
Sequence (P46098 whole entry): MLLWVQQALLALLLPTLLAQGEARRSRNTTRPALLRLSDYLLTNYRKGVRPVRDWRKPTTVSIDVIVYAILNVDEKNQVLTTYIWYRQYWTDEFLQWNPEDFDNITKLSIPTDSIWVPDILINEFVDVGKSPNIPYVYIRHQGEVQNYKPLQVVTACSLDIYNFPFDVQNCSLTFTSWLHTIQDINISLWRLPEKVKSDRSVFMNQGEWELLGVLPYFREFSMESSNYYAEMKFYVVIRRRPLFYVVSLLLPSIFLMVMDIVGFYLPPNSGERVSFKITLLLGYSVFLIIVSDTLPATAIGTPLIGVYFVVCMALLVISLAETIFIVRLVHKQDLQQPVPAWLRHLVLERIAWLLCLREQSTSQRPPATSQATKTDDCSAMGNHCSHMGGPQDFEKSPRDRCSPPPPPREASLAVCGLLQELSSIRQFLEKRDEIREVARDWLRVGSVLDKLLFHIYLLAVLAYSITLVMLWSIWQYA
Assay type: functional
VALUE_KIND: AC50

- COMPOUND: "N[C@@H](C(=O)N[C@@H]1C(=O)N2C(C(=O)O)=C(Cl)CS[C@H]12)c1ccccc1 [CEFACLOR ANHYDROUS]"
  ENDPOINT_VALUE: "> 30 µM"
- COMPOUND: "COc1cc(Nc2c(C#N)cnc3cc(OCCCN4CCN(C)CC4)c(OC)cc23)c(Cl)cc1Cl"
  ENDPOINT_VALUE: "> 10 µM"
- COMPOUND: "CCN(CC)CCNC(=O)c1cc(Cl)c(N)cc1OC [METOCLOPRAMIDE]"
  ENDPOINT_VALUE: "3.55 µM"

Please turn your attention to the following entry.
Query :: Request the reported AC50 associated with C#C[C@]1(O)CC[C@H]2[C@@H]3CCC4=CCCC[C@@H]4[C@H]3CC[C@@]21C
Result :: > 30 µM
